Hello, the source for this data is ChEMBL document CHEMBL2390855, in case you need it.

system: A549; experiment: Cytotoxicity against human A549 cells after 72 hrs by MTT assay; assay type: functional, cell-based; conditions: A549, 72 h
Quick reference for IC50 among some compounds

Write down IC50 measured for item CC(=O)O[C@@H]1C[C@@H](C)[C@]2(CC[C@]3(COC(=O)C3)O2)[C@@]2(C)CCCC(C)(C)[C@H]12 [PREVITEXILACTONE] > 5 µg/mL

Write down IC50 measured for item CO[C@H]1C[C@@]2(CC[C@@]3(O2)[C@H](C)CC[C@H]2C(C)(C)[C@@H](OC(C)=O)CC[C@@]23C)[C@H](OC)O1 [VITEXTRIFOLIN B] > 5 µg/mL

Let's switch to this compound now.
Write down IC50 measured for item CC(=O)O[C@@H]1C[C@@H](C)[C@](O)(CCc2ccoc2)[C@@]2(C)CCCC(C)(C)[C@H]12 [ROTUNDIFURAN] > 5 µg/mL
